Reference source: ChEMBL document CHEMBL1154325

# Lookup of reported pIC50 keyed by entry
# Test system: MDA-MB-435 (Homo sapiens)
# Assay info: Cytotoxic activity against human MDA-MB-435 cells after 69 hrs by MTT assay
# Measurement conditions: MDA-MB-435, 69 h
pIC50: −log10 of the molar value.
Measurement name: pIC50

                         compound_structure  measurement_name  reported
0  COc1cccc2c1C(=O)c1c(O)c3c(c(O)c1C2=O)C[C@@](O)(C(=O)CO)C[C@@H]3O[C@H]1C[C@H](N)[C@H](O)[C@H](C)O1             pIC50      6.92
1  C=C/C(C)=C/C[C@]1(C)[C@H]2C[C@H](O)C=C3[C@H](OC(C)=O)O[C@@H](OC(C)=O)[C@@]32[C@H](OC(=O)/C=C/c2ccccc2)C[C@@H]1C             pIC50    < 5.30
2  C=C/C(C)=C/C[C@]1(C)[C@H]2C[C@@H](OC(C)=O)C=C3[C@H](OC(C)=O)O[C@@H](OC(C)=O)[C@@]32[C@H](OC(=O)c2ccc(O)cc2)C[C@@H]1C             pIC50    < 5.30
